Cited source for all entries: patent US12251387B2

# target.or.test.system: DNA-PK (Homo sapiens)
# assay.info: DNA-PK Inhibition Assay (standard radiometric kinase assay, 33P-ATP, peptide substrate)
# Format: biochemical
# measurement.conditions: radiometric assay, approximately 6 nM DNA-PK, 100 μM ATP, 45 min; fit to competitive tight-binding inhibition; read-out: Ki for the inhibition of DNA-PK
pKi: −log10 of the molar value.
The following compounds are listed with their measured pKi values.

Examples with their reported pKi follow.
Cc1ncnc(N[C@H]2CC[C@@H](Oc3cc(N4CCOCC4)cc4nccnc34)CC2)c1F	> 7.00
CCCc1nc(C)cc(N[C@H]2CC[C@@H](Oc3cc(N4CCOCC4)cc4nccnc34)CC2)n1	> 7.00
CCOc1ccc(N[C@H]2CC[C@@H](Oc3cc(N4CCOCC4)cc4nccnc34)CC2)nc1	> 7.00
c1cnc2c(O[C@H]3CC[C@@H](Nc4ncc(OCCN5CCOCC5)cn4)CC3)cc(N3CCOCC3)cc2n1	> 7.00
c1cnc(NC[C@H]2C[C@@H](Oc3cc(N4CCOCC4)cc4nccnc34)C2)nc1	> 7.00
c1cnc2c(O[C@H]3CC[C@@H](Nc4ncnc5ccoc45)CC3)cc(N3CCOCC3)cc2n1	> 7.00
COc1ncc(F)c(N[C@H]2CC[C@@H](Oc3cc(N4CCOCC4)cc4nccnc34)CC2)n1	> 7.00

Okay, next one:
Please report the measured pKi for c1cc(N[C@H]2CC[C@@H](Oc3cc(N4CCOCC4)cc4nccnc34)CC2)nc(OCCN2CCCCC2)n1
> 7.00
